ASSAY_SUMMARY: NCI Yeast Anticancer Drug Screen. Data for the mec2-1 strain (AID 157)
EXPERIMENTAL_SETUP: S. cerevisiae mec2-1 strain, at 50.0 µM
The panel holds about 79,000 compounds, 15% with a hit somewhere; the sample as a whole holds those more often. Calls of active or inactive are those of the source. Rule as the data show it: active = growth inhibition above about 70%; inactive = the rest.
The reply should be one of these categories: true (1) (active), false (0) (inactive)

Dear colleague, could you share the recorded outcome for COc1ccc(/C(C#N)=C(/N)SCc2ccccc2Cl)cc1 when you have a moment? false (0)

Dear colleague, could you share the recorded outcome for O=C1c2cc([N+](=O)[O-])cc3cc([N+](=O)[O-])cc(c23)C(=O)N1CCCNCCNCCCN1C(=O)c2cc([N+](=O)[O-])cc3cc([N+](=O)[O-])cc(c23)C1=O when you have a moment? true (1)

Dear colleague, could you share the recorded outcome for O=c1[nH]c2ccc([N+](=O)[O-])cc2c2ccc(Cl)cc12 when you have a moment? false (0)

Dear colleague, could you share the recorded outcome for COC(=O)c1nnc(C(=O)OC)c2c1[nH]c1ccccc12 when you have a moment? false (0)

Dear colleague, could you share the recorded outcome for CN(C)CC(CN(C)C)C(=O)C1CCCCC1 when you have a moment? true (1)

Dear colleague, could you share the recorded outcome for CN(C)CCOC1OCN(C)CC1(C)C (stereo not given) when you have a moment? false (0)

Dear colleague, could you share the recorded outcome for COC1=CC(=O)C(O)=C/C1=C\C=C\c1ccccc1 when you have a moment? true (1)

Dear colleague, could you share the recorded outcome for O=C(NC1=Nc2c(ncn2COCCO)S(=O)(=O)[N-]1)c1ccccc1.[Ag+] when you have a moment? true (1)

Dear colleague, could you share the recorded outcome for CCCCCCCCN(CCCCCCCC)CC(O)c1cc(OCC)nc2ccccc12 (stereo not given) when you have a moment? true (1)

Dear colleague, could you share the recorded outcome for COc1cc(O)c2c(=O)c3cccc(C)c3[nH]c2c1 when you have a moment? false (0)

Source: PubChem BioAssay (NCI)
